The values you see were collected from the supplement of paper PMC12632987.

# test.target: T1, TRAF2, Q12933
# T1 chain: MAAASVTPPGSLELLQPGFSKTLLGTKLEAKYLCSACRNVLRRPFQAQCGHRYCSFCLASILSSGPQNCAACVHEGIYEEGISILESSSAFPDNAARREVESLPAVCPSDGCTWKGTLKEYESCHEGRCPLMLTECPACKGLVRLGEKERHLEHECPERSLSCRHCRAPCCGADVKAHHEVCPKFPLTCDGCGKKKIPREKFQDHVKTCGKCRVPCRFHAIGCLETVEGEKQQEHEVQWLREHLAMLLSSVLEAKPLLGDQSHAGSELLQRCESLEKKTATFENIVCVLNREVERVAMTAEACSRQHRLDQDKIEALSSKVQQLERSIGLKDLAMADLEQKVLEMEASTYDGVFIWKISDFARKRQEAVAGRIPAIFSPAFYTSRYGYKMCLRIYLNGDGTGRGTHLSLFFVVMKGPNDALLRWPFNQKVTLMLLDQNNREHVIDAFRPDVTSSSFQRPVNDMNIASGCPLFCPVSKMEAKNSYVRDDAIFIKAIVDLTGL
# assay.text: median log2 fold change of GCK-ALFA target abundance (FLAG IP / Myc IP barcode read proportion) (log2 ratio); each designed protein is fused to an ALFA-tag nanobody in HEK293 cells to bring the named protein to FLAG-tagged glucokinase (GCK); Myc marks an untargeted standard; higher = target protein stabilised (more abundant)
# condition.notes: target protein: 3xFLAG-MCP-GCK-ALFA reporter; HEK293 landing pad (RPLP)
Whole data set: some 1,800 sequences, median “median log2 fold change of GCK-ALFA target abundance (FLAG IP / Myc IP barcode read proportion)” near 0.14, cut for the lowest 2% near -0.84. Many of the other results were omitted from the sample, so the lowest values are more common in it than they were.
Label Y when median log2 fold change is at or above -0.03; anything below gets N.

Qu. Reported median log2 fold change reaches at least -0.03 for traf2_out_20_38_2010 (protein) SEEEKEKEKLEKLVEVANEAYDKYSAEFEKWKAEGKTVEEIAEEVKKRVKEKLSAAGLEEEAKILIEDIDLALSSPNAWRLLVRTLARADALVKQKELNK ?
Ans. N

Qu. Reported median log2 fold change reaches at least -0.03 for traf2_out_18_3_1898 (protein) SEEKLKEISEKIDEIIDEVTAKAREVLDWLEKNKPEVKERIAALRADLEAGAGPFGILRELARLAKEAGEEEKAKEIEEFLKEKSKELQELVDEYLELRA ?
Ans. N

Qu. Reported median log2 fold change reaches at least -0.03 for traf2_out_17_162_1578 (protein) EELKKELEELKKKLEELKKKLKEFEKKLPELPKMSYEELTDLLVEVSELKREARELAEKLEELGKKLGEEEIKKLVEEAKEIAEKLQKIANKIYKEIEKK ?
Ans. Y

Qu. Reported median log2 fold change reaches at least -0.03 for traf2_out_20_3_2212 (protein) EELRKKVEEELEKIRELLEKAKPRLPEEDYARLKELLERAEEALKEDPSDALVELSELKALLLRLSQEARAAGDEELAALLDEAADAANKAANLVYKILE ?
Ans. N

Qu. Reported median log2 fold change reaches at least -0.03 for traf2_out_19_16_1989 (protein) SKEEAEKLKKEMNKYLDEALELAKEAVENLDELSREELMDKLVEISELMRKAKELLQKYLELNKDDEEERKKVTEEFDKKYDEIMKLMTIIVKKIEELLK ?
Ans. Y

Qu. Reported median log2 fold change reaches at least -0.03 for traf2_out_3_89_2280 (protein) SMEEEEKIKEARENIETWIRGLRKSTRRVAEEMRKEGASLETIKGLIDSSATALLEAFKISLKDKGFDEETIEELVEEAKEELEKIREELKEEAEKAYEE ?
Ans. Y

Qu. Reported median log2 fold change reaches at least -0.03 for traf2_out_6_169_2491 (protein) SMAEELKKEAERHLKTAKELYEIAKTIYNQAINNKNYENIDDYIEALETIKNAYKHHYDKAIEYYKKLGNEEEAEKLEKEKEKKLKEIDEMIKKLKELKK ?
Ans. N

Qu. Reported median log2 fold change reaches at least -0.03 for traf2_out_14_166_1277 (protein) MTPEEIERIRKIVDELEPLTDAAVARARAILDKVRDKLSPEDLARVEALLALAARNIGSSAINALREIAKIYKKAGLDEAAAAMQALADELEEKLKKLNK ?
Ans. Y

Qu. Reported median log2 fold change reaches at least -0.03 for traf2_out_6_3_2525 (protein) SSESLRKDARKVLENMGITTAEQLLTLVTAEVNAVKKVASRPDFDRADVAGLRSVLALTRAMVEVAYEELPSVTEADKAEALALIADAEALVEAKAKELE ?
Ans. Y
